The following compounds are listed with their measured pEC50 values.
Tested on: Human RSV-A (“Long” strain)
testProtocol: RSV in vitro cytoprotection assay (CPE, ATPlite) in HEp-2 cells
Assay type: cell-based
setupConditions: human respiratory syncytial virus, 96 h; HEp-2 cells, 4-day incubation, ATPlite readout; read-out: Human RSV-A (“Long” strain) EC50
pEC50: −log10 of the molar value.

Answered examples (5):
INSERT INTO results (structure, observedresult) VALUES
  ('Cc1cnc(N2CC3(CCOCC3)C2)c(C(=O)Nc2ccc(C(=O)N3CCc4cc(-c5nc(C)c(C)s5)sc4-c4ccc(F)cc43)cc2)c1', '7.30 to 8.00'),
  ('Cc1cnc(N2CC3(CCOCC3)C2)c(C(=O)Nc2ccc(C(=O)N3CCc4cc(C(=O)Nc5nccs5)sc4-c4ccc(F)cc43)cc2)c1', '> 8.00'),
  ('Cc1cnc(N2CC3(CCOCC3)C2)c(C(=O)Nc2ccc(C(=O)N3CCc4c(sc(C(=O)Nc5c(C)cccc5C)c4F)-c4ccccc43)cc2)c1', '> 8.00'),
  ('Cc1cnc(N2CC3(CCOCC3)C2)c(C(=O)Nc2ccc(C(=O)N3CCc4c(sc(C(=O)Nc5ccccc5F)c4Cl)-c4ccccc43)cc2)c1', '> 8.00'),
  ('Cc1cnc(N2CC3(CCOCC3)C2)c(C(=O)Nc2ccc(C(=O)N3CCc4cc(-c5nc6ccccc6[nH]5)oc4-c4ccc(F)cc43)cc2)c1', '> 8.00');

For the next question, use this compound.
Task item: Form field: reported pEC50 of "Cc1cnc(N2CC3(CCOCC3)C2)c(C(=O)Nc2ccc(C(=O)N3CCc4c(sc(C(=O)Nc5c(F)cc(F)cc5Cl)c4F)-c4ccccc43)cc2)c1"
Reply: > 8.00

* * *

Test system: Human RSV-A (“Long” strain)
testProtocol: RSV in vitro cytoprotection assay (CPE, ATPlite) in HEp-2 cells
Assay type: cell-based
setupConditions: human respiratory syncytial virus, 96 h; HEp-2 cells, 4-day incubation, ATPlite readout; read-out: Human RSV-A (“Long” strain) EC50
Property: EC50; scope: individual molecules

INSERT INTO assay_data (molecule, experimentaltarget, readoutlabel, observedresult) VALUES
  ('O=C(Nc1c(F)cc(F)cc1Cl)c1cc2c(s1)-c1ccc(F)cc1N(C(=O)c1ccc(NC(=O)c3cc4ccccc4nc3N3CCS(=O)(=O)CC3)cc1)CC2 [Example 33]', 'Human RSV-A (“Long” strain)', 'EC50', '> 50 nM'),
  ('O=C(Nc1c(F)cccc1Cl)c1cc2c(s1)-c1ccc(F)cc1N(C(=O)c1ccc(NC(=O)c3cc(C(F)F)cnc3N3CC4(CCOCC4)C3)cc1)CC2 [Example 145]', 'Human RSV-A (“Long” strain)', 'EC50', '10 to 50 nM'),
  ('Cc1cnc(N2CC3(CCOCC3)C2)c(C(=O)Nc2ccc(C(=O)N3CCc4cc(C(=O)Nc5c(F)cncc5F)sc4-c4ccc(F)cc43)cc2)c1 [Example 117]', 'Human RSV-A (“Long” strain)', 'EC50', '< 10 nM'),
  ('O=C(Nc1c(F)cccc1F)c1cc2c(o1)-c1ccc(F)cc1N(C(=O)c1ccc(NC(=O)c3cc4c(nc3N3CC5(CCOCC5)C3)CCC4)cc1)CC2 [Example 239]', 'Human RSV-A (“Long” strain)', 'EC50', '< 10 nM'),
  ('Cc1cnc(N2CC3(CCOCC3)C2)c(C(=O)Nc2ccc(C(=O)N3CCc4cc(C(=O)Nc5c(Cl)cccc5Cl)oc4-c4ccc(F)cc43)cc2)c1 [Example 236]', 'Human RSV-A (“Long” strain)', 'EC50', '< 10 nM'),
  ('O=C(Nc1c(F)cc(F)cc1Cl)c1cc2c(s1)-c1ccc(F)cc1N(C(=O)c1ccc(NC(=O)c3cc(F)cnc3N3CC4(CCOCC4)C3)cc1)CC2 [Example 26]', 'Human RSV-A (“Long” strain)', 'EC50', '< 10 nM');

Task item: For the molecule shown here, Cc1cnc(N2CC3(CCOCC3)C2)c(C(=O)Nc2ccc(C(=O)N3CCc4cc(C(=O)N[C@H]5CCOC5)sc4-c4ccc(F)cc43)cc2)c1 [Example 124] , give the reported EC50.
Reply: < 10 nM

Task item: What value of measured EC50 is listed for O=C(Nc1c(F)cccc1F)c1nc2c(o1)-c1ccccc1N(C(=O)c1ccc(NC(=O)c3cccnc3N3CC4(CCOCC4)C3)cc1)CC2 [Example 108] ?
Reply: 10 to 50 nM

* * *

Test system: Human RSV-A (“Long” strain)
testProtocol: RSV in vitro cytoprotection assay (CPE, ATPlite) in HEp-2 cells
Format: cell-based
setupConditions: human respiratory syncytial virus, HEp-2; control compound of the RSV assay; read-out: EC50
readoutLabel: EC50

Task item: Looking for the measured EC50 of O=C(Nc1ccccc1F)N[C@H]1N=C(c2ccccc2)c2ccccc2NC1=O [RSV-604, reference compound] , can you help?
Reply: ~2.4 µM

* * *

System: Human RSV-A (“Long” strain)
testProtocol: RSV in vitro cytoprotection assay (CPE, ATPlite) in HEp-2 cells
Format: cell-based
setupConditions: human respiratory syncytial virus, 96 h; HEp-2 cells, 4-day incubation, ATPlite readout; read-out: Human RSV-A (“Long” strain) EC50
pEC50: −log10 of the molar value.
Recorded measurements of pEC50, one per entry

INSERT INTO results (structure, observedresult) VALUES
  ('Cc1ccc(C(=O)Nc2ccc(C(=O)N3CCc4cc(C(=O)Nc5c(F)cc(F)cc5F)oc4-c4ccccc43)cc2)c(N2CC3(CCOCC3)C2)n1', '> 8.00'),
  ('Cc1ccc(C(=O)Nc2ccc(C(=O)N3CCc4cc(C(=O)Nc5c(F)cccc5F)sc4-c4ccc(F)cc43)cc2)c(N2CC3(CCOCC3)C2)n1', '> 8.00'),
  ('Cc1cnc(N2CC3(CCOCC3)C2)c(C(=O)Nc2ccc(C(=O)N3CCc4cc(-c5nccs5)sc4-c4ccc(F)cc43)cc2)c1', '> 8.00'),
  ('Cc1cnc(N2CC3(CCOCC3)C2)c(C(=O)Nc2ccc(C(=O)N3CCc4c(sc(NC(=O)c5c(F)cncc5F)c4F)-c4ccccc43)cc2)c1', '> 8.00'),
  ('Cc1ccc(C(=O)Nc2ccc(C(=O)N3CCc4cc(NC(=O)OCC(F)(F)F)sc4-c4ccccc43)cc2)c(N2CC3(CCOCC3)C2)n1', '7.30 to 8.00'),
  ('Cc1cnc(N2CC3(CCOCC3)C2)c(C(=O)Nc2ccc(C(=O)N3CCc4cc(C(=O)Nc5nc(C)co5)sc4-c4ccc(F)cc43)cc2)c1', '> 8.00'),
  ('Cc1cnc(N2CC3(CCOCC3)C2)c(C(=O)Nc2ccc(C(=O)N3CCc4c(sc(C(=O)Nc5ncccc5C)c4F)-c4ccccc43)cc2)c1', '> 8.00'),
  ('O=C(Nc1c(F)cccc1Cl)c1cc2c(s1)-c1c(cc(F)c(F)c1F)N(C(=O)c1ccc(NC(=O)c3cccnc3N3CC4(CCOCC4)C3)cc1)CC2', '7.30 to 8.00'),
  ('Cc1cnc(N2CC3(CCOCC3)C2)c(C(=O)Nc2ccc(C(=O)N3CCc4cc(-c5cccnn5)sc4-c4ccc(F)cc43)cc2)c1', '> 8.00'),
  ('O=C(Nc1c(F)cc(F)cc1Cl)c1cc2c(s1)-c1ccc(F)cc1N(C(=O)c1ccc(NC(=O)c3cc4c(nc3N3CC5(CCOCC5)C3)CCC4)cc1)CC2', '> 8.00');

Task item: Name the recorded pEC50 for "Cc1cc(C(=O)Nc2ccc(C(=O)N3CCc4c(sc(C(=O)Nc5c(F)cccc5F)c4F)-c4ccccc43)cc2)c(N2CC3(CCOCC3)C2)nc1C" .
Reply: > 8.00

Task item: Which pEC50 reading was recorded for the molecule "Cc1cnc(N2CC3(CCOCC3)C2)c(C(=O)Nc2ccc(C(=O)N3CCc4cc(C(=O)Nc5c(C)cccc5C#N)sc4-c4ccc(F)cc43)cc2)c1" ?
Reply: > 8.00

* * *

Tested on: Human RSV-A (“Long” strain)
testProtocol: RSV in vitro cytoprotection assay (CPE, ATPlite) in HEp-2 cells
Type: cell-based
setupConditions: human respiratory syncytial virus, 96 h; HEp-2 cells, 4-day incubation, ATPlite readout; read-out: Human RSV-A (“Long” strain) EC50
This listing pairs compounds with measured EC50.

// known answers, use as guide
INSERT INTO assay_data (structure, experimentaltarget, observedresult) VALUES
  ('Cc1ccc(C(=O)Nc2ccc(C(=O)N3CCc4cc(-c5nc6cccc(F)c6[nH]5)sc4-c4ccc(F)cc43)cc2)c(N2CC3(CCOCC3)C2)n1', 'Human RSV-A (“Long” strain)', '< 0.01 µM'),
  ('O=C(Nc1ccc(C(=O)N2CCc3c(sc(C(=O)Nc4c(F)cccc4F)c3F)-c3ccccc32)cc1)c1cccnc1N1CC2(CCOCC2)C1', 'Human RSV-A (“Long” strain)', '< 0.01 µM'),
  ('Cc1cccc(C)c1NC(=O)c1cc2c(o1)-c1ccccc1N(C(=O)c1ccc(NC(=O)c3cc4c(nc3N3CC5(CCOCC5)C3)CCC4)cc1)CC2', 'Human RSV-A (“Long” strain)', '< 0.01 µM'),
  ('Cc1cnc(N2CC3(CCOCC3)C2)c(C(=O)Nc2ccc(C(=O)N3CCc4c(sc(C(=O)Nc5c(F)cccc5F)c4Cl)-c4ccccc43)cc2)c1', 'Human RSV-A (“Long” strain)', '< 0.01 µM'),
  ('Cc1cnc(N2CC3(CCOCC3)C2)c(C(=O)Nc2ccc(C(=O)N3CCc4cc(NC(=O)OC(C)C)sc4-c4ccccc43)cc2)c1', 'Human RSV-A (“Long” strain)', '< 0.01 µM');

Task item: Recorded EC50 for "Cc1ccc(C(=O)Nc2ccc(C(=O)N3CCc4cc(NC(=O)OC5CCCCC5)sc4-c4ccccc43)cc2)c(N2CC3(CCOCC3)C2)n1" , please?
Reply: > 0.05 µM

Task item: Tell me the measured EC50 of "Cc1cnc(N2CC3(CCOCC3)C2)c(C(=O)Nc2ccc(C(=O)N3CCc4cc(-c5ccc6[nH]ncc6c5)sc4-c4ccc(F)cc43)cc2)c1" , please.
Reply: < 0.01 µM

Task item: Recorded EC50 of "O=C(Nc1c(F)cc(F)cc1Cl)c1cc2c(s1)-c1ccc(F)cc1N(C(=O)c1ccc(NC(=O)c3cc(C(F)F)cnc3N3CC4(CCOCC4)C3)cc1)CC2" , please.
Reply: 0.01 to 0.05 µM

Task item: Query (compound): "O=C(Nc1c(F)cccc1Cl)c1cc2c(s1)-c1ccc(F)cc1N(C(=O)c1ccc(NC(=O)c3cc4c(nc3N3CC5(CCOCC5)C3)CCOC4)cc1)CC2" ; field requested: EC50
Reply: < 0.01 µM

Task item: Need EC50, item "O=C(Nc1c(F)cc(F)cc1F)c1nc2c(s1)-c1ccccc1N(C(=O)c1ccc(NC(=O)c3cccnc3N3CC4(CCOCC4)C3)cc1)CC2"
Reply: 0.01 to 0.05 µM

Task item: Bench note: what EC50 did "Cc1cnc(N2CC3(CCOCC3)C2)c(C(=O)Nc2ccc(C(=O)N3CCc4cc(-c5c(F)cncc5F)sc4-c4ccc(F)cc43)cc2)c1" show?
Reply: 0.01 to 0.05 µM

Task item: What measured EC50 goes with "Cc1cnc(N2CC3(CCOCC3)C2)c(C(=O)Nc2ccc(C(=O)N3CCc4cc(NC(=O)c5c(C)cccc5F)sc4-c4ccccc43)cc2)c1" ?
Reply: 0.01 to 0.05 µM
